Molecular target: SHP2 (Homo sapiens);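 further: compounds preincubated 30 min at room temperature in the assay mixture, activity referenced to a 0.5% (v/v) DMSO control taken as 100%, run in triplicate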
Sequence (Q06124 1-593): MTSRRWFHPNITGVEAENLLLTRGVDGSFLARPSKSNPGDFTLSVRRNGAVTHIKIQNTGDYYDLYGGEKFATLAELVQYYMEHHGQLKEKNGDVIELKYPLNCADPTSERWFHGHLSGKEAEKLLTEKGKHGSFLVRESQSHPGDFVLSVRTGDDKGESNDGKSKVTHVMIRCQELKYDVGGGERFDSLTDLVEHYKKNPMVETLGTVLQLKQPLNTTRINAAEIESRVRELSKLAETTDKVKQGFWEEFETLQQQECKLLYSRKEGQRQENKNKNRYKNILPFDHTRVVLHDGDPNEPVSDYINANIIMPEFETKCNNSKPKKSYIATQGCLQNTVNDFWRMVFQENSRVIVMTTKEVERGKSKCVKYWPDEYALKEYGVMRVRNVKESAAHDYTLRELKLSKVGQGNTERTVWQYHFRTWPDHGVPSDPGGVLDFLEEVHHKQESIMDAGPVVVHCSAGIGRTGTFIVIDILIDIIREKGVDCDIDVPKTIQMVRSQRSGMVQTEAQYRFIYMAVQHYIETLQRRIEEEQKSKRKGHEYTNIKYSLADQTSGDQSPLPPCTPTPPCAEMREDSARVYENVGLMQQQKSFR
Experiment: biochemical
Settings: read-out: SHP2 inhibition (%)@0.1 μM
EXPERIMENTAL ENDPOINT: inhibition at 0.1 µM (%)

Nc1nccc(Sc2cnc(N3CCC4(CC3)Cc3ncsc3[C@H]4N)cn2)c1Cl [Example 156]: 80
CSc1ccc2c(c1)[C@@H](N)C1(CCN(c3cnc(Sc4ccnc(N)c4Cl)c(N)n3)CC1)C2 [Example 74]: 76
Nc1nc(N2CCC3(CC2)Cc2ncccc2[C@H]3N)cnc1Sc1cnccc1Cl [Example 107]: 77
Nc1nc(N2CCC3(CC2)Cc2ncccc2[C@H]3N)cnc1Sc1ccnc(F)c1Cl [Example 116]: 79
Nc1nc(N2CCC3(CC2)Cc2ncccc2[C@H]3N)cnc1Sc1ccnc2ccccc12 [Example 83]: 91
Nc1nccc(Sc2cnc(N3CCC4(CC3)Cc3nc(Cl)sc3[C@H]4N)cn2)c1Cl [Example 68]: 82
Nc1cccc(Sc2cnc(N3CCC4(CC3)Cc3ccccc3[C@H]4N)cn2)c1Cl [Example 50]: 77
Nc1nc(N2CCC3(CC2)Cc2ccc(C(=O)N4CCCCC4)cc2[C@H]3N)cnc1Sc1ccnc(N)c1Cl [Example 59]: 69
Nc1cnccc1Sc1ncc(N2CCC3(CC2)Cc2ncccc2[C@H]3N)nc1N [Example 109]: 71
COc1nccc(Sc2cnc(N3CCC4(CC3)Cc3ccccc3[C@H]4N)cn2)c1Cl [Example 51]: 85
Nc1nc(N2CCC3(CC2)Cc2ccc(-n4cccc4)cc2[C@H]3N)cnc1Sc1ccnc(N)c1Cl [Example 37]: 76

Attribution: patent US10988466B2
